src = patent US20090004214A1

- system: T1, HLA-DP401 molecule (DPB1*0401) (human, UniProt P20036 29-222, limits assumed)
- T1 construct: HLA class II heterodimer; also called DP*0401
- T1 sequence (P20036 29-222 limits assumed, form in doubt, chain 1 of 3, other chains not shown): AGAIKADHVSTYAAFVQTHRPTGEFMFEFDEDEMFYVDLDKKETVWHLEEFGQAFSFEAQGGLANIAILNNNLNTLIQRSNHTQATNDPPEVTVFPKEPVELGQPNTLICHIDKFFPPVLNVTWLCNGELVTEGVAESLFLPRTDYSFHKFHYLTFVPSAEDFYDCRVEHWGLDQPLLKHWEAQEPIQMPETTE
- assay.explanation: competitive ELISA, tracer Oxy 271-287
pIC50: −log10 of the molar value.
reported.endpoint: pIC50

>>> quantitative_readout("LTLGEFLKLDRERAK (synthetic 15-mer) [survivin peptide 96-110]")
5.54
>>> quantitative_readout("ISTFKNWPFLEGCAC (synthetic 15-mer) [survivin peptide 19-33]")
7.49
>>> quantitative_readout("ERMAEAGFIHCPTEN (synthetic 15-mer) [survivin peptide 36-50]")
5.44
>>> quantitative_readout("PAWQPFLKDHRISTF (synthetic 15-mer) [survivin peptide 8-22]")
4.68
>>> quantitative_readout("GEFLKLDRERAKNKI (synthetic 15-mer) [survivin peptide 99-113]")
4.40
>>> quantitative_readout("PTLPPAWQPFLKDHR (synthetic 15-mer) [survivin peptide 4-18]")
5.05
>>> quantitative_readout("MGAPTLPPAWQPFLK (synthetic 15-mer) [survivin peptide 1-15]")
5.04
>>> quantitative_readout("QPFLKDHRISTFKNW (synthetic 15-mer) [survivin peptide 11-25]")
4.48
>>> quantitative_readout("KQFEELTLGEFLKLD (synthetic 15-mer) [survivin peptide 91-105]")
7.96
>>> quantitative_readout("LSVKKQFEELTLGEF (synthetic 15-mer) [survivin peptide 87-101]")
5.44
>>> quantitative_readout("HRISTFKNWPFLEGC (synthetic 15-mer) [survivin peptide 17-31]")
7.40
>>> quantitative_readout("AKKVRRAIEQLAAMD (synthetic 15-mer) [survivin peptide 128-142]")
4.89
>>> quantitative_readout("KKQFEELTLGEFLKL (synthetic 15-mer) [survivin peptide 90-104]")
7.32
>>> quantitative_readout("CAFLSVKKQFEELTL (synthetic 15-mer) [survivin peptide 84-98]")
6.78
>>> quantitative_readout("FEELTLGEFLKLDRE (synthetic 15-mer) [survivin peptide 93-107]")
7.70
